System Under Test: T1, CRF2R
T1 sequence (Q13324 whole entry, species assumed, looked up): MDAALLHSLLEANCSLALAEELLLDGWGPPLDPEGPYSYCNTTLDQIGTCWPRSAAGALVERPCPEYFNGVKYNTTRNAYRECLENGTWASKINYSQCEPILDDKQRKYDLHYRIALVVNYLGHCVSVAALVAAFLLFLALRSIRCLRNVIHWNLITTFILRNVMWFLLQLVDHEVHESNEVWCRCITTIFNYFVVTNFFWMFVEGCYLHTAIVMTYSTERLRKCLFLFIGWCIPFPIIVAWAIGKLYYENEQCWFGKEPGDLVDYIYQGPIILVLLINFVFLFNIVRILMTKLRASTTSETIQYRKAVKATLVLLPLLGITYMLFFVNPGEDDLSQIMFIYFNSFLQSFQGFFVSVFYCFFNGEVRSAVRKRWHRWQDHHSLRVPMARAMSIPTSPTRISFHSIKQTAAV
Assay Procedure: cell-based or functional assay
Entries annotated with measured CRF2R EC50

Binder: ZGPPISIDLPTYLLRKMIEIEKQEKEKQQATTNARILARV (C-terminal amide) [SEQ ID NO 151]
CRF2R EC50 [nM]: 36.8

Binder: ZGPPISIDLPEYLLRKMIEIEKQEKEKQQAANNRLLLDTI (C-terminal amide) [SEQ ID NO 48]
CRF2R EC50 [nM]: 100

Binder: ZGPPISIDLPFHLLRKMIEIEKQEKEKQQATTNARILARV (C-terminal amide) [SEQ ID NO 146]
CRF2R EC50 [nM]: 8.2
